- RUN DESCRIPTION: Quantitative High-Throughput drug screen in 47 multiple myeloma cell lines against the NCATS MIPE library collection: MMM1_PLB cell viability assay (AID 1918976); also: nearly all actives have a fitted effect of over 35% in size
- RUN CONDITIONS: MMM1 myeloma cells viability, CellTiter-Glo, 48 h; series mostly up to 45.8 µM
Results filed as inconclusive are left out. Active and inactive are the calls of the source. Calls follow the shape of the dose curve; as a rule, active = well fitted cell-killing curve with a large enough effect; inconclusive = small, poorly fitted or top-dose-only effect, or effect the other way; inactive = no such curve, though single readings can be large or run the other way.
Bench note: report the call from y (active), n (inactive)

Please review the entries below; each comes with its answer.
Input line: What was the test verdict on O=C(NCCO[N+](=O)[O-])c1cccnc1 ?
Output line: n

Input line: Would you kindly repeat that for O=c1oc2cc(O)ccc2s1 ?
Output line: y

More entries:
Input line: Called result for COc1cc(C(C)=O)ccc1OCCCN1CCC(c2noc3cc(F)ccc23)CC1
Output line: y

Input line: Input Clc1ccc(C(Cn2ccnc2)OCc2ccc(Sc3ccccc3)cc2)c(Cl)c1 (stereo not given)
Output line: y

Input line: Try the compound CC(C)Oc1ccc2c(=O)c(-c3ccccc3)coc2c1
Output line: y

----------
- RUN DESCRIPTION: qHTS profiling of the MIPE4 collection as inhibitors of Plasmodium falciparum (DD2) proliferation (AID 743345)
- RUN CONDITIONS: P. falciparum Dd2 in erythrocytes, SYBR Green DNA, 72 h; at 28.5 µM (top of the series) unless noted
Non-standard residues stand in square brackets, D forms with d. Residues, ends and D or L forms follow the SMILES beside them. *: point of attachment. Sta = CC(C)C[C@H](N)[C@@H](O)CC(=O)O; Isovaleryl = CC(C)CC(=O)*
READOUT LABEL: parasite growth remaining, % of DMSO control (lower = more inhibition)
Express your answer as a number followed by its unit.

Input line: May I ask what parasite growth remaining, % of DMSO control (lower = more inhibition) has been recorded for CC(C)c1nc(CN(C)C(=O)N[C@H](C(=O)N[C@@H](Cc2ccccc2)C[C@H](O)[C@H](Cc2ccccc2)NC(=O)OCc2cncs2)C(C)C)cs1 ?
Output line: 66.3%

Input line: Query c1ccc2[nH]c(-c3cscn3)nc2c1 next
Output line: 87.1%

Input line: Also need O=c1oc2cc(O)ccc2s1 , thanks.
Output line: 123%

Input line: Would you kindly repeat that for Oc1ccc(OCc2ccccc2)cc1 ?
Output line: 123%

Input line: Field entry: COc1cc2c(N3CCN(C(=O)Nc4ccc(OC(C)C)cc4)CC3)ncnc2cc1OCCCN1CCCCC1
Output line: 8.31%

Input line: Entry CC(C)CC(=O)N[C@H](C(=O)N[C@H](C(=O)N[C@@H](CC(C)C)[C@@H](O)CC(=O)N[C@@H](C)C(=O)N[C@@H](CC(C)C)[C@@H](O)CC(=O)O)C(C)C)C(C)C (Isovaleryl-VV[Sta]A[Sta]-OH) please
Output line: 99.1%

Input line: Then CC(C)[N+]1(C)[C@@H]2CC[C@H]1CC(OC(=O)C(CO)c1ccccc1)C2 (stereo not given in full) ?
Output line: 89.9%

Input line: Also need CC(C)(S)[C@@H](N)C(=O)O , thanks.
Output line: 127%

Continuing:
Input line: Please look up its parasite growth remaining, % of DMSO control (lower = more inhibition): Clc1ccc(C(Cn2ccnc2)OCc2ccsc2Cl)c(Cl)c1 (stereo not given)
Output line: 7.57%

Input line: Another compound: O=c1ccc2ccc(O)c(O)c2o1
Output line: 34.2%

----------
- Tested on: CP238
- RUN DESCRIPTION: qHTS profiling for inhibitors of Plasmodium falciparum proliferation (AID 504749); also: nearly all actives have a fitted effect of over 60% in size
- RUN CONDITIONS: P. falciparum in erythrocytes, SYBR Green DNA, 72 h; series mostly up to 28.7 µM
Results filed as inconclusive are left out. Activity calls are given as the source filed them. Calls follow the shape of the dose curve; as a rule, active = well fitted inhibition curve with a large enough effect; inconclusive = small, poorly fitted or top-dose-only effect; inactive = flat fitted curve, though single readings scatter.
Field 'call' accepts TRUE = active, FALSE = inactive

Worked cases, answers included:
Input line: Could you check what this test reported for C[C@H](Cn1cnc2c(N)ncnc21)OCP(=O)(O)O ?
Output line: FALSE

Input line: Moving on to the next compound: Nc1cc(C(Cl)=C(Cl)Cl)c(S(N)(=O)=O)cc1S(N)(=O)=O
Output line: FALSE

Input line: Same again, this time with CN(c1nccc(=O)[nH]1)C1CCN(c2nc3ccccc3n2Cc2ccc(F)cc2)CC1
Output line: FALSE

Input line: And then CN(C)c1ccc2nc3ccc(=[N+](C)C)cc-3sc2c1 , what is it?
Output line: TRUE

Input line: Entry to check: CCC1=C(C)CN(C(=O)NCCc2ccc(S(=O)(=O)NC(=O)NC3CCC(C)CC3)cc2)C1=O (stereo unspecified)
Output line: FALSE

Further cases:
Input line: Answer briefly: the call reported for Cc1ccc(C)c(OCCCC(C)(C)C(=O)O)c1 in this assay.
Output line: FALSE

Input line: // same read-out, input: O=c1oc2cc(O)ccc2s1
Output line: FALSE

Input line: Now give it for Cc1cc2c(s1)Nc1ccccc1N=C2N1CCN(C)CC1 too.
Output line: FALSE

Input line: Same for C[C@]12CCC(=O)C=C1CC[C@@H]1[C@H]2[C@@H](O)C[C@@]2(C)[C@H]1CC[C@]2(O)C(=O)CO
Output line: FALSE

Input line: Field entry: CCOC(=O)c1c(C)n(C)c2ccc(O)cc12
Output line: FALSE

Input line: Note, next up: CCN(CC)CCOc1ccc(Cc2ccccc2)cc1
Output line: FALSE

----------
- RUN DESCRIPTION: Validation screen for small molecules that induce DNA re-replication in MCF 10A normal breast cells (AID 463097); also: nearly all actives have a fitted effect of over 60% in size
- RUN CONDITIONS: MCF 10A cells, DNA re-replication phenotype imaging; series mostly up to 46.1 µM
- From the text: NIH Molecular Libraries Probe Production Network [MLPCN] NIH Chemical Genomics Center [NCGC] Assay Provider: Melvin DePamphilis, NICHD, NIH Eukaryotic cells normally restrict genome duplication to once per cell division. […] To identify compounds that induce re-replication in normal cells, an image-based assay was used to measure DNA content of nuclei, as detected by the fluorescent DNA binding dye, Hoechst. […]
Results filed as inconclusive are left out. Active and inactive are the calls of the source. The call rests on the fitted dose curve; in most records, active means well fitted activation curve with a large enough effect; inconclusive means small, poorly fitted or top-dose-only effect; inactive means flat fitted curve, though single readings scatter.
Pick one and only one: active, inactive

Input line: Returns: the outcome recorded for CN(C)CCCC1(c2ccc(F)cc2)OCc2cc(C#N)ccc21 (stereo not given) in this assay.
Output line: inactive

Next:
Input line: Name the outcome recorded for O=C(CCc1ccc(O)cc1)c1c(O)cc(O)cc1O in the assay.
Output line: inactive

Input line: Try this compound next: Cc1c(OCC(F)(F)F)ccnc1CS(=O)c1nc2ccccc2[nH]1 (stereo not given)
Output line: inactive

Input line: Would you mind doing NCCCCNCCCN as well?
Output line: inactive

Input line: Can you check CC(=O)O[C@H]1C(=O)[C@@]2(C)C([C@H](OC(=O)c3ccccc3)[C@]3(O)C[C@H](OC(=O)[C@H](O)[C@@H](NC(=O)c4ccccc4)c4ccccc4)C(C)=C1C3(C)C)[C@]1(OC(C)=O)CO[C@@H]1C[C@@H]2O (stereo not given in full) next?
Output line: active

----------
- RUN DESCRIPTION: Cell Viability - HepG2 (AID 433);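 also: potency is read from the fitted curve at half-maximal effect; cells exposed to compound for 40 hours; potency for ATP loss meaning cytotoxicity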
- RUN CONDITIONS: qHTS
Records with an inconclusive call do not appear. Activity calls are given as the source filed them. Calls come from the whole dose curve.
READOUT LABEL: Potency

Examples with answers:
Input line: Given the entry NS(=O)(=O)c1cc(C(=O)O)c(NCc2ccco2)cc1Cl , report its measured Potency.
Output line: > 92 µM (inactive)

Input line: Then what about the molecule Nc1ccc(S(N)(=O)=O)cc1 ?
Output line: > 92 µM (inactive)

Please look at the following molecule next.
Input line: Any idea what Potency was measured for COc1c2occc2cc2ccc(=O)oc12 ?
Output line: > 92 µM (inactive)

----------
- TARGET SYSTEM: Tyrosine-protein phosphatase non-receptor type substrate 1 (Homo sapiens) + Leukocyte surface antigen CD47 (Homo sapiens) (UniProt P78324+Q08722)
- Sequence (P78324 whole entry, looked up): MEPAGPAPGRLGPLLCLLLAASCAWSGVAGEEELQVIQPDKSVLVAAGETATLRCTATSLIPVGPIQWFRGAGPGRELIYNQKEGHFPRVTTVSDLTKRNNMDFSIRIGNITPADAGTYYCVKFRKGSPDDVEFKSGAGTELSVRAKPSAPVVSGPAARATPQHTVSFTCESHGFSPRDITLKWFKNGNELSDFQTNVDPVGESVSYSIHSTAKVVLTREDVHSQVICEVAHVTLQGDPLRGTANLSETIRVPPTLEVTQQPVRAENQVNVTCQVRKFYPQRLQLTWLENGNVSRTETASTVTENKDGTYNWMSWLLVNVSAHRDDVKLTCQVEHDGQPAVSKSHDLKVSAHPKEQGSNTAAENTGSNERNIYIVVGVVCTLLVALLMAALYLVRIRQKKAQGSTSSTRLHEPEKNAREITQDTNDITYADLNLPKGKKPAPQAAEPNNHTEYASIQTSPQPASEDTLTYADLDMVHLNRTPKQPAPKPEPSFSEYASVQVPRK
- Sequence (Q08722 whole entry, looked up): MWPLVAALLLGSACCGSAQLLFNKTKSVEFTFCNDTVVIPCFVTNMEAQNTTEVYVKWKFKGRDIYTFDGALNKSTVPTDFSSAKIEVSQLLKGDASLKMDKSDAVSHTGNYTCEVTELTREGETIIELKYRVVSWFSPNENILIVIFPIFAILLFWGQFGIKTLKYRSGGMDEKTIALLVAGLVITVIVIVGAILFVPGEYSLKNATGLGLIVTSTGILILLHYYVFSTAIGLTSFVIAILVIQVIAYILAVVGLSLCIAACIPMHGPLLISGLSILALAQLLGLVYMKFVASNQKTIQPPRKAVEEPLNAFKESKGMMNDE
- RUN DESCRIPTION: CD47-SIRPalpha protein protein interaction - Alpha assay qHTS validation (AID 1347059);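 also: bead proximity luminescence from CD47 binding SIRPalpha after compound preincubation with SIRPalpha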
- RUN CONDITIONS: AlphaScreen CD47-His/biotin-SIRPalpha binding, LOPAC; series mostly up to 38.3 µM
Results filed as inconclusive are left out. Active and inactive are the calls of the source. Calls come from the whole dose curve; as a rule, active = well fitted inhibition curve with a large enough effect; inconclusive = small, poorly fitted or top-dose-only effect; inactive = flat fitted curve, though single readings scatter.
Respond using exactly one of the listed classes: true (1) (active), false (0) (inactive)

Input line: Give the logged outcome of this assay for the following compound: CC1(C)C(=O)N(CCN2CCC(C(=O)c3ccc(F)cc3)CC2)c2ccccc21
Output line: false (0)

Input line: // same read-out, input: NC(=NCc1ccccc1)NC(=O)c1nc(Cl)c(N)nc1N
Output line: false (0)

Input line: Follow-up entry: O=c1c(O)c(-c2ccc(O)cc2O)oc2cc(O)cc(O)c12
Output line: true (1)

Continuing:
Input line: Dear colleague, could you share the recorded outcome for CCN(CC)CCOc1ccc(Nc2ncc3cc(-c4c(Cl)cccc4Cl)c(=O)n(C)c3n2)cc1 when you have a moment?
Output line: false (0)

Input line: Same read-out for O=C(c1ccccc1)c1ccc2n1CCC2C(=O)O (stereo unspecified) ?
Output line: false (0)

Input line: Oc1ccc(-c2nc(-c3ccc(F)cc3)c(-c3ccncc3)[nH]2)cc1 , same question.
Output line: false (0)

Input line: One more compound: Cc1cccc(C#Cc2ccccc2)n1
Output line: false (0)

Input line: What do you have for CCOC(=O)C1=C(O)C(=O)N(Cc2ccccc2)C1 ?
Output line: false (0)
